Attribution: patent US8101622B2

Biological target: PI3Kβ (Homo sapiens, UniProt P42338)
Sequence (P42338 whole entry, species assumed): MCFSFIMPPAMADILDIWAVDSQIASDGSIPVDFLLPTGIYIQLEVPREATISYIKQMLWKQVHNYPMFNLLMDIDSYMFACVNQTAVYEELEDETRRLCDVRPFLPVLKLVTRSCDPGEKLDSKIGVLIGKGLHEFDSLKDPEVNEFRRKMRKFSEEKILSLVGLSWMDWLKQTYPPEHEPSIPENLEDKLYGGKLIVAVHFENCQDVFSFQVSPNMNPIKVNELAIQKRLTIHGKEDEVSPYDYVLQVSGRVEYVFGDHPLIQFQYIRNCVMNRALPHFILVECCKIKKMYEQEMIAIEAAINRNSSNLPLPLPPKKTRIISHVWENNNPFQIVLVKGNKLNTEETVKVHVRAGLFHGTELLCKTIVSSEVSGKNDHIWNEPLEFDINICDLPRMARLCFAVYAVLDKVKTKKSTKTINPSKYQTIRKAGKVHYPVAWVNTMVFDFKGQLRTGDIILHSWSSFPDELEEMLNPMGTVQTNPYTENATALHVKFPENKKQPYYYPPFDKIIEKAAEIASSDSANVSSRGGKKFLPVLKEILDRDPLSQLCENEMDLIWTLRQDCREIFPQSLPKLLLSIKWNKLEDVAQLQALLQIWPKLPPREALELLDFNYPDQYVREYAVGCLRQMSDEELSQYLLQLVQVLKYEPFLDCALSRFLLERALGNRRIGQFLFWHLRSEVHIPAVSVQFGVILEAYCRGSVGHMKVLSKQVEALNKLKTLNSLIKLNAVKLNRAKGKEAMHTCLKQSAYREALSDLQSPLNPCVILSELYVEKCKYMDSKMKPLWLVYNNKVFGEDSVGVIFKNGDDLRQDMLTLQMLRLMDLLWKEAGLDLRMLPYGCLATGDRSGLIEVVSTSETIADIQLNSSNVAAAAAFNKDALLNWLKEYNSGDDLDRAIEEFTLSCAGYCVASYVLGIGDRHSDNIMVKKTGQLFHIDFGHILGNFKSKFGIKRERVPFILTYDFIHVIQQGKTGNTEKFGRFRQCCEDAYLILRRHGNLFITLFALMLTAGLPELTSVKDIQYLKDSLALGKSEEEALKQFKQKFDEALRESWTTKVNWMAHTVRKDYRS
Sequence (P27986 whole entry partner, species assumed): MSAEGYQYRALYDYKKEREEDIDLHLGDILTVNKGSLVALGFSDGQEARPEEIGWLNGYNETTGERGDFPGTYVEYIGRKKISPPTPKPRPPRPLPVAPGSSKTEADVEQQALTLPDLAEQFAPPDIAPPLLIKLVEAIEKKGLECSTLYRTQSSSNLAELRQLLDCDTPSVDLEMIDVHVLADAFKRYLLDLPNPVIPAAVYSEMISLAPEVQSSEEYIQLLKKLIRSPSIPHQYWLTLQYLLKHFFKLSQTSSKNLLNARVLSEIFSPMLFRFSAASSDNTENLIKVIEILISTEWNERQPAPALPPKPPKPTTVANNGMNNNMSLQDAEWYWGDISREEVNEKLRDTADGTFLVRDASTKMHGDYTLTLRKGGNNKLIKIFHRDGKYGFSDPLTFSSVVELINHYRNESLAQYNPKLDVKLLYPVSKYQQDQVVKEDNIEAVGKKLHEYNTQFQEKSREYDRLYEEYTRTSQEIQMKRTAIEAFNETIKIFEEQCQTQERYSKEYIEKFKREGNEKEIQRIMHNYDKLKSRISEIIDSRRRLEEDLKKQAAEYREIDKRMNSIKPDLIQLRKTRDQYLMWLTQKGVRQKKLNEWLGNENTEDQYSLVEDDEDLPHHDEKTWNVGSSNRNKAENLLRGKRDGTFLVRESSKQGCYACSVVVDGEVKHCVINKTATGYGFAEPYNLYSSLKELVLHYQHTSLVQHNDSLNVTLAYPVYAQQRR
Assay: PI3K luciferase-coupled chemiluminescence assay (PI3Kβ in place of PI3Kα)
Conditions: second value of cell 'P13K-α, β'
Assign pIC50 to each entry below.
One number for each entry, as −log10 of the molar value.

# count of solved cases: 5
Cc1nc(N)nc2c1cc(-c1ccc(N(C)C)nc1)c(=O)n2[C@H]1CCCOC1 [reference compound] ... 6.33
Cc1nc(N)nc2c1cc(-c1ccc(N)nc1)c(=O)n2[C@H]1CCOC1 ... 7.78
Cc1nc(N)nc2c1cc(-c1ccc(N)nc1)c(=O)n2C1CCOC1 (centres unmarked) ... 7.47
Cc1nc(N)nc2c1cc(-c1ccc(N(C)C)nc1)c(=O)n2C1CCCOC1 (centres unmarked) [reference compound] ... 6.69
COc1ccc(-c2cc3c(C)nc(N)nc3n(C3CCCOC3)c2=O)cn1 (centres unmarked) [reference compound] ... 8.17

Return reported pIC50 values for all items listed beneath this line.
1. Cc1nc(N)nc2c1cc(-c1ccc(N)nc1)c(=O)n2C1CCOCC1
2. Cc1nc(N)nc2c1cc(-c1ccc(N)nc1)c(=O)n2C1CCCOC1 (centres unmarked)
3. Cc1nc(N)nc2c1cc(-c1ccc(N)nc1)c(=O)n2[C@H]1CCCOC1

Outgoing:
1: 7.70; 2: 7.28; 3: 7.22

###

Assign Mouse Liver Microsome Oxidation (%) to each entry below.
Assay: Mouse microsomal oxidation assay
Type: in vitro ADME
Conditions: 15 μM compound, 0.5 mg/mL microsomal protein, 1 mM NADPH, 37° C., 30 min; +/−10% equivalent to little or no oxidation
Returns: string containing the number followed by the unit.

# count of solved cases: 2
Cc1nc(N)nc2c1cc(-c1ccc(N)nc1)c(=O)n2C1CCOCC1 ... −7.8%
Cc1nc(N)nc2c1cc(-c1ccc(N)nc1)c(=O)n2C1CCOC1 (stereo not drawn) ... 1.7%

Could you now look at the following molecule, please?
Incoming: Which Mouse Liver Microsome Oxidation (%) is listed for Cc1nc(N)nc2c1cc(-c1ccc(N)nc1)c(=O)n2C1CCCOC1 (stereo not drawn) ?
Outgoing: 15.2%
